Target: T1, HLA-B*44:05 (human)
T1 construct: also called peptide-receptive MHC class I molecule
Experiment: UV peptide exchange, anti-b2m ELISA
Protocol: Only peptide candidates that can effectively bind and stabilize the peptide-receptive MHC molecules prevent dissociation of the MHC complexes. […] 96 well MAXISorp plates (NUNC) were coated over night with 2 ug/ml streptavidin in PBS at room temperature, washed 4× and blocked for 1 h at 37° C. in 2% BSA containing blocking buffer. […] Absorption was measured at 450 nm.
Measured property: peptide exchange yield

Consider the following illustrative entries.
EEINELNRMI
50 to 75%
AERDLNVTI
50 to 75%
QEILHGAVRF
50 to 75%
EESFRCLPEW
> 75%

Measured peptide exchange yield of "NEAGEMIKHY" : 20 to 50%

binder "HEIIIRSHW" , peptide exchange yield observed: 50 to 75%

For this binder ( "EESFDSKFY" ), measured peptide exchange yield is 50 to 75%

peptide exchange yield reading for "TEVHSSPAQRW" : 50 to 75%
